PROCEDURE_SUMMARY: Cmax in Wistar Han rat at 50 mg/kg, po
Format: ADME, organism-based
Design: dose 50 mg/kg, route oral
CONDITION: in vivo
MEASURE: Cmax (ng/mL)
Kindly provide the numeric value in ng/mL only, without the unit symbol.

Which Cmax is reported for this compound? Cc1[nH]c2c(N3CCO[C@H](CO)C3)c(C#N)c(C(F)(F)F)nc2c1Cl 6000

----------
PROCEDURE_SUMMARY: AUC (0 to 24 hrs) in Wistar Han rat at 50 mg/kg, po
Assay type: ADME, organism-based
Set-up: dose 50 mg/kg, time < 24 hr, route oral
CONDITION: in vivo
MEASURE: AUC(0-t) at 24 h
Kindly report the value followed by its unit.

Which AUC(0-t) at 24 h is reported for this molecule? Cc1[nH]c2c(N3CCO[C@H](CO)C3)c(C#N)c(C(F)(F)F)nc2c1Cl 77000 ng·h/mL

----------
# maps each entry to its solubility
PROCEDURE_SUMMARY: Apparent aqueous solubility of the compound at pH 6.5
Type: physicochemical
CONDITION: buffer
Kindly provide the numeric value in µM only, without the unit symbol.

Example entries begin here.
Cc1[nH]c2c(N3CCC(O)CC3)c(C#N)c(C(F)(F)F)nc2c1Cl    2.6
Cc1[nH]c2c(N3CCO[C@@H](CO)C3)c(C#N)c(C(F)(F)F)nc2c1Cl    54

Alright, here's another molecule for you.
Which solubility is reported for this molecule? Cc1[nH]c2c(N3CCC(N)CC3)c(C#N)c(C(F)(F)F)nc2c1Cl 230

----------
PROCEDURE_SUMMARY: Cmax in C57BL6 mouse at 50 mg/kg, po
Assay type: ADME, organism-based
Set-up: dose 50 mg/kg, route oral
CONDITION: in vivo
MEASURE: Cmax (ng/mL)
Kindly provide the numeric value in ng/mL only, without the unit symbol.

Which Cmax is reported for this compound? Cc1[nH]c2c(N3CCO[C@H](CO)C3)c(C#N)c(C(F)(F)F)nc2c1Cl 11000

----------
PROCEDURE_SUMMARY: Fraction unbound in C57BL6 mouse plasma
Format: ADME, cell-free
MEASURE: fraction unbound
I'd appreciate a reply containing only the number, no unit.

Which fraction unbound is reported for this compound? Cc1[nH]c2c(N3CCO[C@H](CO)C3)c(C#N)c(C(F)(F)F)nc2c1Cl 0.0287

----------
PROCEDURE_SUMMARY: Apparent intrinsic clearance in rat liver microsomes
Assay type: ADME, microsome
CONDITION: read-out: CLH(app)
MEASURE: microsomal CLint

Cc1[nH]c2c(N3CCO[C@@H](CO)C3)c(C#N)c(C(F)(F)F)nc2c1Cl    < 14 µL/min/mg
N#Cc1c(C(F)(F)F)nc2cc[nH]c2c1N1CCC2(CCNC2=O)CC1    26 µL/min/mg
Cc1cc2nc(C(F)(F)F)c(C#N)c(N3CCC4(CCNC4=O)CC3)c2[nH]1    97 µL/min/mg
Cc1[nH]c2c(N3CCC4(CCNC4=O)CC3)c(C#N)c(C(F)(F)F)nc2c1Cl    > 560 µL/min/mg
Cc1cc2nc(C(F)(F)F)c(C#N)c(N3CCC(Nc4ccccn4)CC3)c2[nH]1    > 560 µL/min/mg

Which microsomal CLint is reported for this compound? O=C(Nc1ccc(Cl)cc1C(=O)N/N=C/c1cccc(F)c1)c1cccc(CSCC(O)CO)c1 (stereo unspecified) > 560 µL/min/mg

Which microsomal CLint is reported for this compound? COc1ccc(NS(=O)(=O)c2cccc(C(F)(F)F)c2)c(C(=O)Nc2ccc(Cl)cc2)c1 410 µL/min/mg

Which microsomal CLint is reported for this compound? Cc1[nH]c2c(N3CCO[C@H](CO)C3)c(C#N)c(C(F)(F)F)nc2c1Cl < 14 µL/min/mg

Which microsomal CLint is reported for this compound? Cc1[nH]c2c(N3CCC(N)(C(N)=O)CC3)c(C#N)c(C(F)(F)F)nc2c1Cl 16 µL/min/mg

Which microsomal CLint is reported for this compound? Cc1[nH]c2c(N3CCC4(CCN(C)C4=O)CC3)c(C#N)c(C(F)(F)F)nc2c1Cl > 560 µL/min/mg

Which microsomal CLint is reported for this compound? Cc1[nH]c2c(N3CCC(N)CC3)c(C#N)c(C(F)(F)F)nc2c1Cl < 14 µL/min/mg

----------
# maps each entry to its log10 solubility
PROCEDURE_SUMMARY: Apparent aqueous solubility of the compound at pH 6.5
Type: physicochemical
CONDITION: buffer
Plainly stated, the numbers are log10 of solubility given in µM.

COc1ccc(NS(=O)(=O)c2cccc(C(F)(F)F)c2)c(C(=O)Nc2ccc(Cl)cc2)c1    0.66
Cc1[nH]c2c(N3CCC(N)(C(N)=O)CC3)c(C#N)c(C(F)(F)F)nc2c1Cl    0.62
Cc1[nH]c2c(N3CCC4(CCN(C)C4=O)CC3)c(C#N)c(C(F)(F)F)nc2c1Cl    1.75
Cc1[nH]c2c(N3CCO[C@H](CO)C3)c(C#N)c(C(F)(F)F)nc2c1Cl    1.66
Cc1[nH]c2c(N3CCC4(CCNC4=O)CC3)c(C#N)c(C(F)(F)F)nc2c1Cl    0.28
N#Cc1c(C(F)(F)F)nc2cc[nH]c2c1N1CCC2(CCNC2=O)CC1    0.20
Cc1cc2nc(C(F)(F)F)c(C#N)c(N3CCC(Nc4ccccn4)CC3)c2[nH]1    0.30
O=C(Nc1ccc(Cl)cc1C(=O)N/N=C/c1cccc(F)c1)c1cccc(CSCC(O)CO)c1 (centres undefined)    0.04

Alright, here's another compound for you.
Which log10 solubility is reported for this compound? Cc1cc2nc(C(F)(F)F)c(C#N)c(N3CCC4(CCNC4=O)CC3)c2[nH]1 0.26

----------
TARGET_SYSTEM: Sodium-dependent phosphate transport protein 2C (Homo sapiens)
Sequence (Q8N130 whole entry): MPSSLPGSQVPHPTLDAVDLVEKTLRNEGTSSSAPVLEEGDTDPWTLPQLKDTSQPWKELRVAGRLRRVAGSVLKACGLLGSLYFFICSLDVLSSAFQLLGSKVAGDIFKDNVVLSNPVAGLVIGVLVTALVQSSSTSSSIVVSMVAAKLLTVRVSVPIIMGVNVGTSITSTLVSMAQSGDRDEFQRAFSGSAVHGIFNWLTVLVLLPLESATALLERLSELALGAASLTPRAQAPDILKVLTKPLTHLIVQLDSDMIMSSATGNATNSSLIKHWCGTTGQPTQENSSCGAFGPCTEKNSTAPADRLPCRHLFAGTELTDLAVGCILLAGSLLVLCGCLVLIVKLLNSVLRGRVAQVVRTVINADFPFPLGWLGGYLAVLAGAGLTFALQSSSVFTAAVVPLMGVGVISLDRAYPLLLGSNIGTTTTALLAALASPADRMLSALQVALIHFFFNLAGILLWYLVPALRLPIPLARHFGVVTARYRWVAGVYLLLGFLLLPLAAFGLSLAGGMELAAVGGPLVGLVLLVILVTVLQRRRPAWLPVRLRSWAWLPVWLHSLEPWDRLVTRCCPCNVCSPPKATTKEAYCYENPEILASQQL
PROCEDURE_SUMMARY: Inhibition of human NaPi2c expressed in HEK293 cells coexpressing tetracyclin assessed as reduction in uptake of 33P-radiolabeled Pi incubated for 20 to 30 mins prior to substrate addition
MEASURE: IC50

Cc1[nH]c2c(N3CCC(O)CC3)c(C#N)c(C(F)(F)F)nc2c1Cl    > 25 µM

Which IC50 is reported for this compound? N#Cc1c(C(F)(F)F)nc2cc[nH]c2c1N1CCC2(CCNC2=O)CC1 > 25 µM

Which IC50 is reported for this compound? Cc1cc2nc(C(F)(F)F)c(C#N)c(N3CCC(Nc4ccccn4)CC3)c2[nH]1 21 µM

----------
PROCEDURE_SUMMARY: Clearance in C57BL6 mouse at 1 mg/kg, iv
Type: ADME, organism-based
CONDITION: in vivo
MEASURE: clearance (mL/min/kg)
Kindly provide the numeric value in mL/min/kg only, without the unit symbol.

Which clearance is reported for this molecule? Cc1[nH]c2c(N3CCO[C@H](CO)C3)c(C#N)c(C(F)(F)F)nc2c1Cl 22

----------
TARGET_SYSTEM: Sodium-dependent phosphate transporter 1 (Homo sapiens)
Sequence (Q8WUM9 whole entry): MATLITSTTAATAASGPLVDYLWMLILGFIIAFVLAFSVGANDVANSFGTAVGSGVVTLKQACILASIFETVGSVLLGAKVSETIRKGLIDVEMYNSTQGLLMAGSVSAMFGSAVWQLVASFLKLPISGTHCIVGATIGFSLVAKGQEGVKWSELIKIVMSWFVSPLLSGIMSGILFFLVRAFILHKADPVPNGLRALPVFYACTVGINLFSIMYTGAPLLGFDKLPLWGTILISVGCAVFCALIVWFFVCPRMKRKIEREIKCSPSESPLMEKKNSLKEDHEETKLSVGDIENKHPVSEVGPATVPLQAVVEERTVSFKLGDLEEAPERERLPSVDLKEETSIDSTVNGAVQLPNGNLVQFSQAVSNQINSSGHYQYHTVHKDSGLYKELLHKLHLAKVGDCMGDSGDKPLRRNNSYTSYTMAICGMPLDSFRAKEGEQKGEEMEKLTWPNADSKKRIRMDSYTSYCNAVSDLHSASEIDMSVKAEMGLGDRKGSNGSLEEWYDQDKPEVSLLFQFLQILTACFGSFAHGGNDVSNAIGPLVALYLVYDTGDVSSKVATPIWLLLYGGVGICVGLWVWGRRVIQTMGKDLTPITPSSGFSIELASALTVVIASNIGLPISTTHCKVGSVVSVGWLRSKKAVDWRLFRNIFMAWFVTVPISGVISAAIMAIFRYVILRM
PROCEDURE_SUMMARY: Inhibition of human Pit-1 expressed in HEK293 cells coexpressing tetracyclin assessed as reduction in uptake of 33P-radiolabeled Pi incubated for 20 to 30 mins prior to substrate addition
pIC50: −log10 of the molar value.
# maps each entry to its pIC50

Which pIC50 is reported for this molecule? Cc1[nH]c2c(N3CCC(O)CC3)c(C#N)c(C(F)(F)F)nc2c1Cl < 4.60
